Test system: SR
procedure-summary: Cytotoxicity against human SR cells assessed as cell growth at 10 uM after 48 hrs by sulforhodamine B assay relative to control
Assay type: functional
test-settings: read-out: Activity
measurement-type: growth at 10 µM (%)

chemical-smiles: COc1ccc(C(=O)/C=C/c2cc(-c3ccc4c(c3)OCO4)n[nH]2)cc1OC
target: SR
result: -13

chemical-smiles: COc1cc(C(=O)/C=C/c2cc(-c3cc(OC)c(OC)c(OC)c3)n[nH]2)cc(OC)c1OC
target: SR
result: 12

chemical-smiles: COc1ccc(-c2cc(/C=C/C(=O)c3cc(OC)c(OC)c(OC)c3)[nH]n2)cc1OC
target: SR
result: -10

chemical-smiles: COc1cc2c(cc1OC)C(=O)/C(=C/c1cc(-c3ccc4c(c3)OCO4)n[nH]1)C2
target: SR
result: -24

chemical-smiles: COc1ccc(C(=O)/C=C/c2cc(-c3cc(OC)c(OC)c(OC)c3)n[nH]2)cc1
target: SR
result: 3
